Where do the numbers come from? From ChEMBL document CHEMBL1201862.

test system: OVCAR-5; assay: NCI tumour cell line growth inhibition, 48 h
The source made the active and inactive calls. No stated cut-off is given here; in the data, active = GI50 up to about 1.1 µM and inactive = higher.
The reply should name one outcome from 1 = active, 0 = inactive

Sample answers from the record:
O=c1[nH]c(C2CCCCC2)nc2c(Cl)cccc12	0
CC1CC[P+](c2ccccc2)(c2ccccc2)CC1	0

Query: recorded result category for O=C1NC(=O)[C@@H](OCC2CCCCC2)[C@@H]2OCC3OC(C(O)C3O)C12 (some centres not stated) in this test
0

Query: recorded result category for COC1=C(C)C(=O)C2=C(C1=O)C1C3CC4=C(C(=O)C(OC)=C(C)C4=O)C(CNC(=O)C(C)O)N3C(C#N)C(C2)N1C (configuration not stated) in this test
1

Query: recorded result category for OCCN=C1c2ccccc2C2C(c3ccccc31)C1c3ccccc3C(=NCCO)c3ccccc3C21 (configuration not stated) in this test
0

Query: recorded result category for CCOC(=O)C1=C(C)N(C2OC(COC(=O)c3ccccc3)C(OC(=O)c3ccccc3)C2OC(=O)c2ccccc2)C(=S)NC1c1ccccc1 (configuration not stated) in this test
0

Query: recorded result category for CCCc1c(Cl)nc(Cl)nc1Cl in this test
0
